# Test system: L6
# testName: Cytotoxicity against rat L6 cells after 70 hrs by alamar blue assay
# Format: cell-based
# assaySetup: L6, 70 h
pIC50: −log10 of the molar value.
endpointLabel: pIC50

- COc1cc(C(=N)N)ccc1OCCCOc1ccc(C(=N)N)cc1OC.Cl.Cl: 3.94
- CC(C)NC(=N)c1ccc(OCCCCCOc2ccc(C(=N)NC(C)C)c(F)c2)cc1F: 3.88
- Cl.Cl.c1cc(C2=NCCN2)ccc1NCCCCCNc1ccc(C2=NCCN2)cc1: 4.46
- Cl.Cl.c1cc(C2=NCCN2)ccc1OCCCCOc1ccc(C2=NCCN2)cc1: 4.20
- COc1cc(C(=N)N)ccc1OCCCCCOc1ccc(C(=N)N)cc1OC.Cl.Cl: 3.79
